B1: EIF5 (parent)
chain: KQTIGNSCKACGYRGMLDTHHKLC

Variants of: B1
procedure summary: protein stability index of a GFP-peptide fusion (GPS, HEK-293T) (PSI 1-6); higher = more stable;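 further: lentivirally expressed fusions sorted by FACS into six bins by GFP to DsRed ratio, PSI derived from sequencing read proportions per bin multiplied by bin number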
test settings: c terminus: a fixed tail appended
Documented protein stability index across a set of variants
Output: the number by itself.

Consider the following illustrative entries.
Look up protein stability index: KQTIGNSCKACGYTGMLDTHHKLC [R14T]
3.52

Look at this variant and give its reported protein stability index. KQTIGNSCKAVGYRGMLDTHHKLC [C11V]
2.88

Using the record for KGTIGNSCKACGYRGMLDTHHKLC [Q2G] , report its protein stability index.
3.22

---
Would you kindly share the measured protein stability index for KQTIGNSCKACGYRGMLDTHHKMC [L23M] ?
3.42

Which value of protein stability index has been reported for KQTIGNSCKACGYMGMLDTHHKLC [R14M] in the records?
2.97

Fill in the blank: the reported protein stability index of KQTIGNSCKACGYRGMLDTHHTLC [K22T] is ____.
2.99

These entries and their values trace back to the supplement of paper PMC10567573.
